Read-out: serum amyloid A (SAA), SAA1 (gene 6288)
Measurement Description: BSK_CASM3C_SAA: BioMAP Diversity Plus: CASM3C Assay for serum amyloid A (SAA) Biomarker Activity (AID 2283049);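 note: SAA protein level quantified by ELISA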
Assay Setup: primary human coronary artery smooth muscle cells; actives raise or lower the signal
Active and inactive are the calls of the source. Rule for the calls: active = hit-call score of the fitted dose curve at least 0.9, where 1 is the maximum; inactive = score below 0.9.
Possible outcomes: YES for active, NO for inactive

compound="CC(C)CCCC(C)CCO (stereo not drawn)" label_value=YES
compound=Cc1cc(C)c(O)c(C(C)(C)C)c1 label_value=YES
compound=Nc1cc([N+](=O)[O-])cc(Cl)c1O label_value=NO
compound=O=C(O)C(F)(F)C(F)(F)C(F)(F)OC(F)(C(F)(F)F)C(F)(F)F label_value=NO
compound=NC(=O)C(F)(F)C(F)(F)C(F)(F)C(F)(F)C(N)=O label_value=NO
compound=NS(=O)(=O)C(F)(F)C(F)(F)C(F)(F)C(F)(F)C(F)(F)C(F)(F)F label_value=NO
compound=NC(=O)C(F)(F)C(F)(F)C(F)(F)C(F)F label_value=NO
compound=NC(=O)C(F)(F)C(F)(F)C(F)(F)F label_value=NO
compound=Cc1ccc(S(=O)(=O)C(I)I)cc1 label_value=YES
compound=O=C(O)CCC(F)(F)C(F)(F)C(F)(F)C(F)(F)C(F)(F)C(F)(F)C(F)(F)F label_value=NO
compound=O=C1c2c(O)ccc(Nc3ccc(CCO)cc3)c2C(=O)c2c([N+](=O)[O-])ccc(O)c21 label_value=NO
compound=CCN(CC)c1ccc2c(c1)Oc1cc(N(CC)CC)ccc1C21OC(=O)c2ccccc21 label_value=NO
compound=NC(O)(C(F)(F)F)C(F)(F)F label_value=NO
compound=O=C(Cl)C(F)(F)C(F)(F)C(F)(F)C(F)(F)C(F)(F)C(F)(F)F label_value=NO
compound=O=C=Nc1cccc2c(N=C=O)cccc12 label_value=NO
compound=O=C1C=CC(=O)N1c1ccc(Cc2ccc(N3C(=O)C=CC3=O)cc2)cc1 label_value=YES
compound=FC(F)(F)C(F)(F)C(F)(F)C(F)(F)C(F)(F)C(F)(F)CC[Si](Cl)(Cl)Cl label_value=NO
compound=O=C(Cl)C(F)(F)C(F)(F)C(F)(F)C(F)(F)C(F)(F)C(F)(F)C(F)(F)F label_value=NO
compound=Cc1ccc(O)c(-n2nc3ccccc3n2)c1 label_value=NO
compound=O=C(O)C(F)(F)OC(F)(F)C(F)(F)OC(F)(F)C(F)(F)OC(F)(F)F label_value=NO
compound=O=C(O)CCC(F)(F)C(F)(F)C(F)(F)F label_value=NO
compound=O=C(c1ccccc1)c1ccc(O)cc1O label_value=NO
compound=CO[Si](C)(CCC(F)(F)C(F)(F)C(F)(F)C(F)(F)C(F)(F)C(F)(F)F)OC label_value=NO
